All values here come from PubChem BioAssay (Tox21).

# experimentNotes: qHTS assay for identifying genotoxic compounds that show differential cytotoxicity against isogenic chicken DT40 cell lines with known DNA damage response pathways - Rev3 mutant cell line (AID 743014); further: nearly all actives have a fitted effect of over 55% in size
# testConditions: chicken DT40 Rev3-/- viability, CellTiter-Glo, 40 h; series mostly up to 68.4 µM
Records with an inconclusive call do not appear. Activity calls are given as the source filed them. The call rests on the fitted dose curve; in most records, active means well fitted cell-killing curve with a large enough effect in the repeat runs; inconclusive means weak or mixed curves, or effect the other way; inactive means no such curve, though single readings can be large or run the other way.
Reply using exactly one outcome from active, inactive

Dear colleague, could you share the recorded outcome for CN[C@H]1CCc2cc(OC)c(OC)c(OC)c2-c2ccc(OC)c(=O)cc21 when you have a moment? active

What is the recorded call for this compound in the test? C[Se]CCC(N)C(=O)O (stereo not given) inactive

For O=C(NOC[C@H](O)CO)c1ccc(F)c(F)c1Nc1ccc(I)cc1F , which call appears in the assay record? inactive

Which outcome was entered for the compound CCN(CC)CCOc1ccccc1OC in this test? inactive

Test call for this compound, please: CC(=O)Nc1ccc(OC(=O)c2ccccc2O)cc1 inactive

* * *

# experimentNotes: qHTS assay for identifying genotoxic compounds that show differential cytotoxicity against isogenic chicken DT40 cell lines with known DNA damage response pathways - Rad54/Ku70 mutant cell line (AID 743015); further: nearly all actives have a fitted effect of over 60% in size; further: potency means the concentration at half of the fitted maximal effect
# testConditions: DT40 Rad54/Ku70 mutant viability, CellTiter-Glo, 40 h; series mostly up to 66.8 µM
Records with an inconclusive call do not appear. Activity calls are given as the source filed them. Calls come from the whole dose curve; as a rule, active = well fitted cell-killing curve with a large enough effect in the repeat runs; inconclusive = weak or mixed curves; inactive = no such curve, though single readings can be large or run the other way.
quantityKind: Potency

Consider the following illustrative entries.
molecule: O=P(O)(O)OC(Cn1cncn1)(Cn1cncn1)c1ccc(F)cc1F
Potency: inactive
//
molecule: CCN(CC)c1ccc(C(=C2C=CC(=[N+](CC)CC)C=C2)c2ccccc2)cc1
Potency: 106 nM (active)
//
molecule: CO[C@H]1O[C@@H]2O[C@@]3(C)CC[C@H]4[C@H](C)CC[C@@H]([C@H]1C)[C@@]24OO3
Potency: 668 nM (active)
//
molecule: C[C@]12C=CC(=O)C=C1CC[C@@H]1[C@@H]2[C@@H](O)C[C@@]2(C)[C@H]1CC[C@]2(O)C(=O)COC(=O)CCC(=O)O
Potency: inactive
//
molecule: CCCOc1cc(N)ccc1C(=O)OCCN(CC)CC
Potency: inactive

Need Potency, item CCN(CC)CCOC(=O)c1ccc(N)cc1Cl inactive

Name the recorded Potency for C[C@H](CSC(=O)c1ccccc1)C(=O)N1C[C@@H](Sc2ccccc2)C[C@H]1C(=O)O . inactive

* * *

# systemName: Glucocorticoid receptor (Homo sapiens)
# experimentNotes: qHTS assay to identify small molecule agonists of the glucocorticoid receptor (GR) signaling pathway (AID 720691)
# testConditions: GR-bla HeLa, beta-lactamase reporter ratio, 18 h
The source made the active and inactive calls. The call rests on the fitted dose curve; in most records, active means well fitted activation curve with a large enough effect in the signal ratio in the repeat runs (not every such curve was filed as active); inconclusive means weak or mixed curves, or effect the other way; inactive means no such curve, though single readings can be large or run the other way; the % refers to the signal ratio.
Valid outcomes are listed here; reply with one: active, inactive

Call for entry Cc1cc(C(=O)NNCc2ccccc2)no1 : inactive

I would be grateful if you could indicate the recorded call for CCOC(=O)c1cc(-c2ccccc2)nc2ccc(C)cc12 . inactive

Tell me the recorded outcome of this test for CCCCCC(O)/C=C/C=O (stereo not drawn) . inactive

Which outcome did this test record for the compound COc1ccccc1N1CCN(CCCC(=O)c2ccc(F)cc2)CC1 ? inactive

Would you mind telling me which call this test gave CC1C(=O)CC2C3(C)CCC2(C(C)C(=O)O)C(=O)C13 (stereo not drawn) ? inactive

Each compound tested received a call. Report the one for CCN(CC)CCOC(=O)c1ccc(N)cc1Cl . inactive

Which outcome did this test record for the compound CN1CCN(C(c2ccccc2)c2ccc(Cl)cc2)CC1 (stereo not drawn) ? inactive

Call for entry N[C@H](CCC(=O)O)C(=O)O : inactive

Check the results log: what was the call for O=C(Nc1ccc(O)cc1)c1ccccc1O ? inactive

Hello, I am checking results. What call was entered for N[C@@H](C(=O)N[C@@H]1C(=O)N2C(C(=O)O)=C(CSc3cn[nH]n3)CS[C@H]12)c1ccc(O)cc1 ? inactive

Which outcome was entered for the compound OCCN1CCN(CC/C=C2/c3ccccc3Sc3ccc(Cl)cc32)CC1 in this test? inactive

Outcome? CO[C@H]1C=CO[C@@]2(C)Oc3c(C)c(O)c4c(O)c(c(/C=N/N5CCN(C6CCCC6)CC5)c(O)c4c3C2=O)NC(=O)/C(C)=C\C=C[C@H](C)[C@H](O)[C@@H](C)[C@@H](O)[C@@H](C)[C@H](OC(C)=O)[C@@H]1C inactive

Record request — test call for [O]=[Bi][O][Bi]=[O] inactive

Recorded call for CN1[C@@H]2CC[C@H]1CC(OC(c1ccccc1)c1ccccc1)C2 (stereo partly drawn) ? inactive

Hi, do you know how NCCCNCCCCNC(=O)C(O)NC(=O)CCCCCCN=C(N)N (stereo not drawn) came out in this test? inactive

Please state the recorded outcome for this compound: CS(=O)(=O)OCCCNCCCOS(C)(=O)=O inactive

What classification did Nc1nc2c(c(=O)[nH]1)N(C=O)C(CNc1ccc(C(=O)N[C@@H](CCC(=O)O)C(=O)O)cc1)CN2 (stereo partly drawn) end up with in this test? inactive

Dear colleague, could you share the recorded outcome for CC(C)(CO)[C@@H](O)C(=O)NCCCC(=O)O when you have a moment? inactive

So what was the verdict on CCCCCCCCCCCCCCCCCCCCCC(=O)Nc1ccn([C@@H]2O[C@H](CO)[C@@H](O)[C@@H]2O)c(=O)n1 in this test? inactive

Given CC(=O)OCC(=O)[C@@]1(O)[C@H](C)C[C@H]2[C@@H]3C[C@H](F)C4=CC(=O)C=C[C@]4(C)[C@H]3[C@@H](O)C[C@@]21C , state the outcome it received in this test. active

Identify the outcome logged in this assay for the compound shown: COc1ccc(-c2noc(CC(=O)O)c2-c2ccc(OC)cc2)cc1 inactive

Could you kindly confirm the outcome this assay logged for COc1cc(C[C@@H]2NCCc3cc(O)c(O)cc32)cc(OC)c1OC ? inactive

Short answer needed: outcome of this test for NC[C@@H]1O[C@H](O[C@H]2[C@@H](O)[C@H](O[C@@H]3[C@@H](O)[C@H](N)C[C@H](N)[C@H]3O[C@H]3O[C@H](CO)[C@@H](O)[C@H](O)[C@H]3N)O[C@@H]2CO)[C@H](N)[C@@H](O)[C@@H]1O ? inactive

Assay result, entry CN[C@@H]1[C@@H](O)[C@@H](O[C@@H]2[C@@H](O)[C@H](O[C@H]3O[C@H](CN)[C@@H](O)[C@H](O)[C@H]3O)[C@@H](N)C[C@H]2NC(=O)C(O)CN)OC[C@]1(C)O (stereo partly drawn) — outcome? active

Call for entry CCCCCCCCCCCCCCCC(=O)OC[C@@H](O)[C@H]1OC[C@H](O)[C@H]1O : inactive

Hi, sorry to bother you, what did the test record for C[C@@H]1C/C=C/C=C/C=C/C=C/[C@H](O[C@@H]2O[C@H](C)[C@@H](O)[C@H](N)[C@@H]2O)C[C@@H]2O[C@](O)(C[C@@H](O)C[C@H]3O[C@@H]3/C=C/C(=O)O1)C[C@H](O)[C@H]2C(=O)O ? inactive

Call for entry CCCC(=O)Nc1c(I)cc(I)c(CC(CC)C(=O)O)c1I (stereo not drawn) : inactive

Test call, this compound: CS(=O)(=O)OCC(O)C(O)COS(C)(=O)=O (stereo not drawn) inactive

Please state the recorded outcome for this compound: CCC(=O)O[C@@H]1CC(=O)O[C@H](C)C/C=C/C=C/[C@H](O)[C@H](C)C[C@H](CC=O)[C@H](O[C@@H]2O[C@H](C)[C@@H](O[C@H]3C[C@@](C)(O)[C@@H](OC(=O)CC)[C@H](C)O3)[C@H](N(C)C)[C@H]2O)[C@H]1OC inactive

Please state the recorded outcome for this compound: COc1ccc(CCNCC(O)COc2cccc(C)c2)cc1OC (stereo not drawn) inactive

Outcome? CCCC1C(=O)N2C(N(C)C)=Nc3ccc(C)cc3N2C1=O (stereo not drawn) inactive

Record lookup: outcome of this test for COCC(=O)Nc1cc(Sc2ccccc2)ccc1N=C(NC(=O)OC)NC(=O)OC ? inactive

Per the assay record, what outcome was assigned to CC(=O)OC[C@H]1O[C@@H](O[C@H]2[C@H](O)[C@@H](OC(=O)c3ccccc3C(=O)O)[C@H](O)O[C@@H]2COC(C)=O)[C@H](O)[C@@H](OC(=O)c2ccccc2C(=O)O)[C@@H]1O ? inactive

* * *

# experimentNotes: qHTS assay for identifying genotoxic compounds that show differential cytotoxicity against isogenic chicken DT40 cell lines with known DNA damage response pathways - Rev3 mutant cell line (AID 743014); further: nearly all actives have a fitted effect of over 55% in size; further: potency means the concentration at half of the fitted maximal effect
# testConditions: chicken DT40 Rev3-/- viability, CellTiter-Glo, 40 h; series mostly up to 68.4 µM
Inconclusive results are not listed. Calls of active or inactive are those of the source. The call rests on the fitted dose curve; in most records, active means well fitted cell-killing curve with a large enough effect in the repeat runs; inconclusive means weak or mixed curves, or effect the other way; inactive means no such curve, though single readings can be large or run the other way. Non-standard residues stand in square brackets, D forms with d. Residues, ends and D or L forms follow the SMILES beside them. pGlu = O=C1CC[C@@H](C(=O)O)N1; Thz = O=C(O)[C@@H]1CSCN1
quantityKind: Potency

Reference set (8 entries):
compound: C=C[C@]1(C)C[C@@H](OC(=O)CSC(C)(C)CNC(=O)[C@H](N)C(C)C)[C@]2(C)[C@H](C)CC[C@]3(CCC(=O)[C@H]32)[C@@H](C)[C@@H]1O
quantityKind: Potency
result: 0.335 µM (active)
--
compound: O=C1CSC2(CCN(CCCN3c4ccccc4Sc4ccc(Cl)cc43)CC2)N1
quantityKind: Potency
result: 7.5 µM (active)
--
compound: O=C1CC[C@@H](C(=O)N2CSC[C@H]2C(=O)O)N1 ([pGlu]-[Thz]-OH)
quantityKind: Potency
result: inactive
--
compound: COc1cc2[nH]c(C)c(CCN3CCN(c4ccccc4)CC3)c2cc1OC
quantityKind: Potency
result: 26.6 µM (active)
--
compound: N[C@@H](C(=O)N[C@@H]1C(=O)N2C(C(=O)O)=C(Cl)CC[C@H]12)c1ccccc1
quantityKind: Potency
result: inactive
--
compound: COc1ccc(CNCC(O)COc2ccc3[nH]c(=O)ccc3c2)cc1OC (stereo not drawn)
quantityKind: Potency
result: inactive
--
compound: O=P(O)(O)OC(Cn1cncn1)(Cn1cncn1)c1ccc(F)cc1F
quantityKind: Potency
result: inactive
--
compound: C=C1C(=C/C=C2\CCC[C@]3(C)[C@@H]([C@H](C)CCCC(C)(C)O)CC[C@@H]23)C[C@@H](O)C[C@@H]1O
quantityKind: Potency
result: 11.9 µM (active)

Recorded Potency for CS(=O)(=O)NC(=O)CCC/C=C\C[C@H]1C(=O)C[C@@H](O)[C@@H]1/C=C/[C@H](O)COc1ccccc1 , please? inactive

What value of Potency has been recorded for this entry: O=c1[nH]cnc2[nH]cc(CN3CCCCC3)c12 inactive

Please give the measured Potency for this compound: O=C(O)c1cc(O)c2c(c1)[O][Bi][O]2 inactive

What measured Potency goes with CC(O)[C@@H]1NC(=O)[C@H](CCCCN)NC(=O)[C@@H](Cc2c[nH]c3ccccc23)NC(=O)[C@H](Cc2ccccc2)NC(=O)[C@@H](NC(=O)[C@H](N)Cc2ccccc2)CSSC[C@@H](C(=O)N[C@H](CO)[C@@H](C)O)NC1=O (stereo partly drawn) ? inactive

Name the reported Potency value associated with the compound NCCC(=O)[N-][C@@H](Cc1cnc[nH]1)C(=O)O.[Zn] inactive
